target: human Androgen Receptor (AR), AR (gene 367); test: NVS_NR_hAR: NovaScreen (NVS) Nuclear Receptor Binding Assay for human Androgen Receptor (AR) (AID 2283332)
Records with an inconclusive call do not appear. The source made the active and inactive calls. How the source made its calls: active means hit-call score of the fitted dose curve at least 0.9, where 1 is the maximum; inconclusive means response in the unintended direction; inactive means score below 0.9.
# output must be one of TRUE = active, FALSE = inactive

Sample answers from the record:
O=C1c2ccccc2C(=O)c2c(Cl)cccc21
TRUE
O=C1c2c(O)ccc(Nc3ccc(CCO)cc3)c2C(=O)c2c([N+](=O)[O-])ccc(O)c21
TRUE
C#CC(O)CCC (centres undefined)
FALSE

Query molecule follows.
## Task Fill in: this test's call for "CCN(CC)c1ccc(C=O)c(O)c1" is ___
## Result TRUE
